Protocol Details: xn = mol fraction of the nth substance listed, in the solute-free solvent
Recorded Conditions: 318.15 K; x2 = 0.4
Entry class follows solubility (g/100 g solution): band 1 = under 5, band 2 = from 5 up to 8, band 3 = 8 and over

Record excerpt, results attached:
O=C1CCc2ccc(OCCCCN3CCN(c4cccc(Cl)c4Cl)CC3)cc2N1 + CCC(C)=O + CCOC(C)=O : band 1
O=C(O)c1ccc(C(=O)O)o1 + C1COCCO1 + O : band 2

Class label required: O=C1CCc2ccc(OCCCCN3CCN(c4cccc(Cl)c4Cl)CC3)cc2N1 + CCC(C)=O + CC(C)=O
band 1

----------
Protocol Details: xn = mol fraction of the nth substance listed, in the solute-free solvent
Recorded Conditions: 318.15 K; x2 = 0.9
Values of solubility (g/100 g solution) greater than or equal to 10 map to fulfilled; values below map to not fulfilled.

O=C(O)c1ccc(C(=O)O)o1 + C1COCCO1 + O : not fulfilled
O=C1CCc2ccc(OCCCCN3CCN(c4cccc(Cl)c4Cl)CC3)cc2N1 + CCC(C)=O + CC(C)=O : not fulfilled
O=C1CCc2ccc(OCCCCN3CCN(c4cccc(Cl)c4Cl)CC3)cc2N1 + CCC(C)=O + CCOC(C)=O : not fulfilled
CC(=O)OC(c1ccccc1)C(Cl)(Cl)Cl (configuration not stated) + CCO + O : fulfilled
O=C(O)c1ccc(C(=O)O)o1 + O + COCCOCCOC : not fulfilled

Could you please find out whether CCCCOc1ccc(C(=O)CCN2CCCCC2)cc1.Cl + CCO + CCCCCC has solubility (g/100 g solution) that meets 10 or exceeds it?
fulfilled

What would you report for CC(=O)OC(c1ccccc1)C(Cl)(Cl)Cl (configuration not stated) + CC(=O)O + O ?
fulfilled

Entry CC(=O)OC(c1ccccc1)C(Cl)(Cl)Cl (configuration not stated) + CC(C)O + O please
fulfilled

Entry to check: O=C1CCc2ccc(OCCCCN3CCN(c4cccc(Cl)c4Cl)CC3)cc2N1 + CCC(C)=O + CCCO
not fulfilled

Okay, and COC1=CC(=O)CC(C)C12Oc1c(Cl)c(OC)cc(OC)c1C2=O (configuration not stated) + CC(=O)CC(C)C + CC(C)O ?
not fulfilled

# iterate: CCCCOc1ccc(C(=O)CCN2CCCCC2)cc1.Cl + CO + C1CCOC1
fulfilled

What do you have for CCCCOc1ccc(C(=O)CCN2CCCCC2)cc1.Cl + CCO + O ?
fulfilled
